pIC50 values for the molecules below.
Test system: human lung cancer strain NCI-H441;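 also: cell proliferation inhibition after four days measured by CellTiter-Glo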
study conditions: read-out: NCI-H441 IC50; NCI-H441 cells, four days, CellTiter-Glo
Where a SMILES comes first, the peptide text is derived from it. Bridges are numbered along the chain shown (N, C = ends). [ ]: non-standard residue; d: D form. The star is where a group is joined. hPhe(3-Cl-4-CF3) = N[C@@H](CCc1ccc(C(F)(F)F)c(Cl)c1)C(=O)O; NPrPhe(4-CF3) = CCCN[C@@H](Cc1ccc(C(F)(F)F)cc1)C(=O)O; NMeGly(cPent) = CN[C@H](C(=O)O)C1CCCC1; NMeD = CN[C@@H](CC(=O)O)C(=O)O; NMeL = CN[C@@H](CC(C)C)C(=O)O; Piperidide = C1CCN(*)CC1; Ac5c = NC1(C(=O)O)CCCC1; Sar = CNCC(=O)O
Hey, just a heads up that pIC50 is the negative log base 10 of the concentration in molar.

CCO[C@@H]1C[C@H]2C(=O)NC3(CCC3)C(=O)N(C)[C@@H](C3CCCC3)C(=O)N(C)[C@H](C(=O)N3CCCCC3)CC(=O)N(C)[C@H]3CCC/C=C/c4ccc(cc4)C[C@@H](C(=O)N(C)CC(=O)N[C@@H](CCc4ccc(Cl)c(Cl)c4)C(=O)N2C1)N1CC/C=C\C[C@@H](C1=O)N(C)C(=O)CN(C1CC1)C(=O)[C@H]([C@@H](C)CC)NC3=O ... 7.71

query: I'd like to know its pIC50. The molecule in question is CCO[C@@H]1C[C@H]2C(=O)NC3(CC(C)(C)C3)C(=O)N(C)[C@@H](C3CCCC3)C(=O)N(C)[C@H](C(=O)N(C)C)CC(=O)N(C)[C@@H](CC(C)C)C(=O)N[C@@H]([C@@H](C)CC)C(=O)N(C)CC(=O)N(C)[C@H]3C/C=C\CCN(C3=O)[C@@H](Cc3ccc(C)c(F)c3)C(=O)N(C)CC(=O)N[C@@H](CCc3ccc(C(F)(F)F)c(OC)c3)C(=O)N2C1
result: 8.21

query: I'd like to know its pIC50. The molecule in question is CCCN1C(=O)CN(C)C(=O)CN(C)C(=O)[C@H]([C@@H](C)CC)NC(=O)[C@H](CC(C)C)N(C)C(=O)C[C@@H](C(=O)N2CCCCC2)N(C)C(=O)[C@H](C2CCCC2)N(C)C(=O)C2(CCCC2)NC(=O)[C@@H]2CCCN2C(=O)[C@H](CCc2ccc(C(F)(F)F)c(Cl)c2)NC(=O)CN(C)C(=O)[C@@H]1Cc1ccc(C(F)(F)F)cc1 [PP0171] ([NMeL]I[Sar][Sar][NPrPhe(4-CF3)][Sar][hPhe(3-Cl-4-CF3)]P[Ac5c][NMeGly(cPent)][NMeD]-Piperidide; lactam N-11)
result: 8.16

query: I'd like to know its pIC50. The molecule in question is CCO[C@@H]1C[C@H]2C(=O)NC3(CCC3)C(=O)N(C)[C@@H](C(CC)CC)C(=O)N(C)[C@H](C(=O)N3CCCCC3)CC(=O)N(C)[C@H]3CCC/C=C/c4ccc(cc4)C[C@@H](C(=O)N(C)CC(=O)N[C@@H](CCc4ccc(Cl)c(Cl)c4)C(=O)N2C1)N1CC/C=C\C[C@@H](C1=O)N(C)C(=O)CN(C1CC1)C(=O)[C@H]([C@@H](C)CC)NC3=O
result: 7.74

Recorded values, source patent US20240158446A1.
